Biological target: Vitamin D3 receptor (Sus scrofa) (UniProt A3RGC1)
Sequence (whole entry): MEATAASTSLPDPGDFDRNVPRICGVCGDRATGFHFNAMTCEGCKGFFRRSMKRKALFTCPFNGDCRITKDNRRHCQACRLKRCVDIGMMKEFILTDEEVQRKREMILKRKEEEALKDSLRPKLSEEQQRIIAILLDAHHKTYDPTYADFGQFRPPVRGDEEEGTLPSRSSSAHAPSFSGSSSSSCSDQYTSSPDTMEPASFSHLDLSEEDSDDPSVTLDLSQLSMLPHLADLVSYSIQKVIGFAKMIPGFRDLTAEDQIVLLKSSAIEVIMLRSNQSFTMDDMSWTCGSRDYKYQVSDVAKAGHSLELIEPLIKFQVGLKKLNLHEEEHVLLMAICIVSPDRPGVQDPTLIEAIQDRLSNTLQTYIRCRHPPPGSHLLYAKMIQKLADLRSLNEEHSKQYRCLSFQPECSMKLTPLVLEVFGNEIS
Experiment: Displacement of [3H]1-alpha,25-(OH)2-D3 from VDR in pig intestinal mucosa relative to 1-alpha,25-(OH)2-D3
Format: tissue-based
Property measured: Activity

Mol	Activity
C[C@H](CCCC(C)(C)O)[C@H]1CC[C@H]2C(/C=C\C3=C[C@@H](O)[C@@H](O)[C@H](O)C3)=CCC[C@]12C	0.2%
C[C@H](CCCC(C)(C)O)[C@H]1CC[C@H]2C(/C=C\C3=C[C@H](O)[C@@H](O)[C@H](O)C3)=CCC[C@]12C	< 0.1%
C[C@H](CCCC(C)(C)O)[C@H]1CC[C@H]2C(/C=C\C3=C[C@@H](O)[C@@H](O)[C@@H](O)C3)=CCC[C@]12C	< 0.1%

Pending compound:
Task: Query (compound): C[C@H](CCCC(C)(C)O)[C@H]1CC[C@H]2C(/C=C\C3=C[C@@H](O)[C@H](O)[C@H](O)C3)=CCC[C@]12C ; field requested: Activity
Output: 2%

* * *

Recorded Activity values for a group of molecules are listed next.
Molecular target: Vitamin D-binding protein (Homo sapiens)
Assay: Binding affinity to human DBP relative to 1-alpha,25-(OH)2-D3
Write the value in % as a bare number.

Mol	Readout unit	Activity
C[C@H](CCCC(C)(C)O)[C@H]1CC[C@H]2C(/C=C\C3=C[C@@H](O)[C@H](O)[C@H](O)C3)=CCC[C@]12C	%	8
C[C@H](CCCC(C)(C)O)[C@H]1CC[C@H]2C(/C=C\C3=C[C@H](O)[C@@H](O)[C@H](O)C3)=CCC[C@]12C	%	2
C[C@H](CCCC(C)(C)O)[C@H]1CC[C@H]2C(/C=C\C3=C[C@@H](O)[C@@H](O)[C@@H](O)C3)=CCC[C@]12C	%	7

Task: Query (molecule): C[C@H](CCCC(C)(C)O)[C@H]1CC[C@H]2C(/C=C\C3=C[C@@H](O)[C@@H](O)[C@H](O)C3)=CCC[C@]12C ; field requested: Activity
Output: 4

* * *

Test system: MCF7
Experiment: Antiproliferative activity against human MCF7 cells after 72 hrs relative to 1-alpha,25-(OH)2-D3
Format: functional
Recorded Activity values for a group of compounds are listed next.
Write the value in % as a bare number.

Some entries whose results are on file:
Mol	Property measured	Endpoint value
C[C@H](CCCC(C)(C)O)[C@H]1CC[C@H]2C(/C=C\C3=C[C@@H](O)[C@@H](O)[C@@H](O)C3)=CCC[C@]12C	Activity	0
C[C@H](CCCC(C)(C)O)[C@H]1CC[C@H]2C(/C=C\C3=C[C@@H](O)[C@H](O)[C@H](O)C3)=CCC[C@]12C	Activity	6
C[C@H](CCCC(C)(C)O)[C@H]1CC[C@H]2C(/C=C\C3=C[C@@H](O)[C@@H](O)[C@H](O)C3)=CCC[C@]12C	Activity	2

Pending compound:
Task: Query (compound): C[C@H](CCCC(C)(C)O)[C@H]1CC[C@H]2C(/C=C\C3=C[C@H](O)[C@@H](O)[C@H](O)C3)=CCC[C@]12C ; field requested: Activity
Output: 0
